# test_protocol: in vitro
# stated_conditions: human, hela cells, % viability
# reported viability at 28.5 h, 10 µM; entries follow

{"molecule": "CCSc1ccnc2c1c(=O)n(C)c(=O)n2C", "viability at 28.5 h, 10 µM / %": 98.9}
{"molecule": "Cc1csc(Sc2cc(N3CCCC3)ncn2)n1", "viability at 28.5 h, 10 µM / %": 100}
{"molecule": "Cc1oc(NC(=O)CN2CCN(c3ccc(F)cc3)CC2)c(C#N)c1C", "viability at 28.5 h, 10 µM / %": 86.7}
{"molecule": "CCn1ncc(CN2CCN(C(=O)c3nn(C)cc3C(=O)O)CC2)c1C", "viability at 28.5 h, 10 µM / %": 89.3}
{"molecule": "Cc1cccc(C)c1NC(=O)CSc1nnc(C(O)c2ccccc2)n1C (stereo not shown)", "viability at 28.5 h, 10 µM / %": 84.8}
{"molecule": "Cc1[nH]c(=O)c(C#N)cc1C(=O)N(C)Cc1cc(-c2ccncc2)no1", "viability at 28.5 h, 10 µM / %": 113}
{"molecule": "CCn1cncc1CN1CCCC(O)(c2ccc(F)cc2)CC1 (stereo not shown)", "viability at 28.5 h, 10 µM / %": 90.6}
{"molecule": "Cc1ccc(C2(O)CCN(CCNC(=O)C3CCCC3)CC2)cc1", "viability at 28.5 h, 10 µM / %": 93.1}
{"molecule": "Cn1cc(CN2CCC(C(=O)NC(c3ccc4c(c3)OCO4)c3ccccn3)CC2)c2ccccc21 (stereo not shown)", "viability at 28.5 h, 10 µM / %": 94}
{"molecule": "CC(=O)c1ccc(-c2ccc(C(=O)N3CCN(C)CC3)c(N3CCOCC3)n2)s1", "viability at 28.5 h, 10 µM / %": 96.3}
{"molecule": "O=c1c([N+](=O)[O-])c[nH]c2nc(-c3ccncc3)nn12 [CBK288531N]", "viability at 28.5 h, 10 µM / %": 87.8}
{"molecule": "O=C(NCc1ccc(Cl)cc1)N(Cc1cccnc1)Cc1ccc2c(c1)OCO2", "viability at 28.5 h, 10 µM / %": 97}
{"molecule": "O=C(COc1ccc([N+](=O)[O-])cc1)N/N=C/c1cc(Br)cc(Br)c1O", "viability at 28.5 h, 10 µM / %": 98.3}
{"molecule": "CN(C)c1ccc(/C=C(\\C#N)c2nn(-c3ccccc3)c(N)c2C#N)cc1[N+](=O)[O-]", "viability at 28.5 h, 10 µM / %": 83.4}
{"molecule": "CN1[C@@H](CCC(=O)Nc2ccccc2)CNC(=O)[C@@H]2[C@H]1CCN2C1CCOCC1", "viability at 28.5 h, 10 µM / %": 108}
{"molecule": "COCCNc1cc(-c2ccc(F)c(F)c2)ncn1", "viability at 28.5 h, 10 µM / %": 100}
{"molecule": "COc1ccc(C(=O)N2CCC3(CCN(Cc4cc(=O)[nH]c(=O)[nH]4)C3)C2)cc1OC (stereo not shown)", "viability at 28.5 h, 10 µM / %": 108}
{"molecule": "COc1cc(Br)c(-c2nnn[nH]2)cc1OC", "viability at 28.5 h, 10 µM / %": 108}
{"molecule": "Cc1ccc(C(=O)C(OC(=O)COc2ccccc2C)c2ccccc2)cc1C (stereo not shown)", "viability at 28.5 h, 10 µM / %": 85.3}
